This collection of values is drawn from patent US9315522B2.

clearance overview
Assay: In vivo pharmacokinetic and oral bioavailability in mouse
Design: species or system male Swiss mice
Details: male, Swiss, plasma, iv, 2.5 mg/kg, 20% HP-β-cyclodextrin, read-out: Plasma clearance Cl (converted)
Write down the numeric answer in L/h/kg and omit the unit.

compound	unit of measure	clearance
O=C1CNCc2cc(/C=C/C(=O)N3CC4C=C(c5nccs5)CC4C3)cnc2N1 (stereo not drawn)	L/h/kg	1.6
O=C1CNCc2cc(/C=C/C(=O)N3CC4C=C(c5ccccc5)CC4C3)cnc2N1 (stereo not drawn)	L/h/kg	1.3

Now, please, on to the next compound.
State the recorded clearance for this entry: O=C1COc2cc(/C=C/C(=O)N3CC4C=C(c5ccccc5)CC4C3)cnc2N1 (stereo not drawn)
0.32
